The measurements presented in this section are drawn from ChEMBL document CHEMBL1201862.

System: SF-295
experiment_summary: NCI tumour cell line growth inhibition, 48 h
Calls of active or inactive are those of the source. Rule as the data show it: active = GI50 up to about 1.1 µM and inactive = higher.
Outcome (select one): Y = active, N = inactive

// outcome(item) with item = Nc1ncc2c(n1)-c1ccccc1OC2N1CCCC1 (stereo unspecified)
N

Next up: Nc1nc(Cl)c(/N=N/c2ccc(Cl)cc2)c(NCC2(CO)CCC(CCc3ccccc3)C2)n1 (stereo unspecified)
N

Next up: "CCCCCCCCCCCCCc1nnn[nH]1"
N

Next up: CC(=O)NC1C(OCc2ccccc2)OC(CO)C(O)C1OCC(=O)N[C@@H](C)C(=O)N[C@H](CCC(=O)NCCCNc1ccc([N+](=O)[O-])c2[nH]c3ccccc3c(=O)c12)C(N)=O (stereo partly specified)
N

Next up: Nc1ccc(C(=O)CC2(O)C(=O)Nc3c(Cl)cc(Cl)cc32)cc1 (stereo unspecified)
N

Next up: C=C1C(=O)OC2C3OC(C)(CCC(O)C3COC(C)=O)CC(OC(=O)/C(=C/C)COC(C)=O)C12 (stereo unspecified)
N

Next up: "CCN(CC)CCOc1ccc(N2Cc3ccccc3C2=O)cc1"
N

Next up: "Cc1ccc(/N=C2\C(=O)C3=C(OC(C)(C)CC3)c3ccccc32)cc1"
N

Next up: CC(=O)OCC1OC(OCCCOP(=S)(OCCC#N)OCC2OC(n3ccc(N)nc3=O)C(OC(=O)c3ccccc3)C2OC(=O)c2ccccc2)C(OC(C)=O)C(OC(C)=O)C1OC(C)=O (stereo unspecified)
N

Next up: O=C(NC1(C(=O)NNc2nnc(-c3ccccc3)c(-c3ccccc3)n2)C(c2ccccc2)C(c2ccccc2)=NN1c1ccccc1)c1ccccc1 (stereo unspecified)
N

Next up: COC(=O)/C=C/C(=O)C1C(C(=O)OC)C2(C(=O)OC)CCC1(C(=O)OC)N2 (stereo unspecified)
N

Next up: OCC(O)COCn1cc(Cn2ncc3c(SCc4ccccc4)ncnc32)nn1 (stereo unspecified)
N

Next up: "c1ccc2c(c1)SC1=C(SC(=C3SC4=C(S3)Sc3ccccc3S4)S1)S2"
N

Next up: CCCCCCCCCCCCCCCCCCNc1ccn(C2OC(COP(=O)(O)OCC3OC(n4cc(F)c(=O)[nH]c4=O)CC3O)C(O)C2O)c(=O)n1 (stereo unspecified)
Y

Next up: CCOP(=O)(OCC)C1=C(c2ccccc2)OC(N)=C(C#N)C1c1ccc(Cl)cc1 (stereo unspecified)
N

Next up: "COc1cc(/C=C2\CCC/C(=C\c3ccc(O)c(OC)c3)C2=O)ccc1O"
N

---

System: HOP-92
experiment_summary: NCI tumour cell line growth inhibition, 48 h
Activity calls are given as the source filed them. Cut-off read from the data, not from the text of the source: active = GI50 up to about 1.1 µM and inactive = higher.
Outcome (select one): 1 for active, -1 for inactive

// outcome(item) with item = "C1=C\SS/C=C\SS/C=C\SS/C=C\SS/1"
-1

Next up: "O=[N+]([O-])c1ccc2c(/N=N/c3c(O)ccc4ccccc34)c(O)cc(S(=O)(=O)O)c2c1"
-1

Next up: "[N-]=[N+]=CC(=O)OCC1SCCCS1"
-1

Next up: COC1CC(OC2CCC3(C)C(=CCC4C3C(OC(C)=O)C(OC(=O)CC(C)C)C3(C)C(C(C)=O)CCC43O)C2)OC(C)C1OC1CC(OC)C(OC2CC(OC)C(OC3OC(C)C(O)C(OC)C3O)C(C)O2)C(C)O1 (configuration not stated)
-1

Next up: O=C(NC1(C(=O)NNc2nnc(-c3ccccc3)c(-c3ccccc3)n2)C(c2ccccc2)C(c2ccccc2)=NN1c1ccccc1)c1ccccc1 (configuration not stated)
-1

Next up: CC(=O)N1N=C(c2ccc3ccccc3c2O)CC1c1ccc(Cl)cc1Cl (configuration not stated)
-1

Next up: CC(=O)OC(CN1CCN(c2ccccn2)CC1)Cn1sc2nc(C)cc(C)c2c1=O (configuration not stated)
-1

Next up: "Cc1ccc(/N=C2\C(=O)C3=C(OC(C)(C)CC3)c3ccccc32)cc1"
-1

Next up: "COc1cc(/C=C2\CCC/C(=C\c3ccc(O)c(OC)c3)C2=O)ccc1O"
-1

Next up: "O=c1c2ccccc2[nH]n1Cc1ccccc1"
-1

Next up: C=C(c1ccccc1)C1(O)CCCCC1N (configuration not stated)
-1

Next up: CC(C)(C)C(=O)OCOP(=O)(OCOC(=O)C(C)(C)C)OCC1OC(n2ccc(=O)[nH]c2=O)C(N=[N+]=[N-])C1O (configuration not stated)
-1

Next up: CN(C)c1ccc(C2CC(C)(O)Oc3cc4c(cc32)OCO4)cc1 (configuration not stated)
-1

Next up: "C/C(=C\c1ccc2c(c1)OCO2)[N+](=O)[O-]"
-1

Next up: CCOP(=O)(OCC)C1=C(c2ccccc2)OC(N)=C(C#N)C1c1ccc(Cl)cc1 (configuration not stated)
-1

Next up: NC(Cc1ccccc1)c1nccs1 (configuration not stated)
-1

Next up: Cc1ccc(O)c(C2=CC3=NNC(=O)C3C(c3cccc(Br)c3)C2)c1 (configuration not stated)
-1

Next up: "CC(C)(C)OC(=O)NCC(=O)OCc1ccccc1"
-1

Next up: COc1ccc(CC2C3=C(CCN2C(=O)C2CCC2)CC2(CC3)OCCO2)cc1O (configuration not stated)
-1

Next up: "O=C(O)[C@H](NS(=O)(=O)c1ccc([N+](=O)[O-])cc1)c1ccccc1"
-1

Next up: "COC(=O)[C@@]1(C)/C(=N/NS(=O)(=O)c2ccc(C)cc2)CCC[C@@H]1C"
-1

Next up: CCCCCCCCCC(O)CC(=O)c1c(O)cccc1O (configuration not stated)
-1

Next up: "Cc1c(N(Cc2ccccc2)Cc2ccccc2)nc(S(C)(=O)=O)nc1S(C)(=O)=O"
-1

Next up: CCCC/C=C/C1Cc2ccccc2CN1S(=O)(=O)c1ccc(C)cc1 (configuration not stated)
-1

Next up: "COc1ccc([Se][Se]c2ccc(OC)cc2OC)c(OC)c1"
-1

Next up: O=C1OC([C@H](O)c2cccnc2)c2ccccc21 (some centres not stated)
-1

Next up: "C=CS(=O)(=O)CCN1CC1"
-1

Next up: "Cc1c(C(=O)/C=C/c2ccc([N+](=O)[O-])cc2)[n+]([O-])c2ccccc2[n+]1[O-]"
-1

Next up: COC(=O)/C=C/C(=O)C1C(C(=O)OC)C2(C(=O)OC)CCC1(C(=O)OC)N2 (configuration not stated)
1

Next up: CCCCCCCCCCCCCCCCCCNc1ccn(C2OC(COP(=O)(O)OCC3OC(n4cc(F)c(=O)[nH]c4=O)CC3O)C(O)C2O)c(=O)n1 (configuration not stated)
-1

Next up: "CC1(C)N=c2[nH]cnc2=C(C(N)=O)N1"
-1

Next up: "C/C(CC(=O)Nc1ccc(Cl)cc1)=N\NC(N)=S"
-1

Next up: "NCCCCNc1ccc2c(=O)[nH][nH]c(=O)c2c1"
-1

Next up: "C=C[C@]1(C)C[C@@H](OC(=O)CO)[C@@]2(C)[C@H](C)CC[C@]3(CCC(=O)[C@H]32)[C@@H](C)[C@@H]1O"
-1

Next up: "O=C(NCCN1CCCCC1)c1ccc(Br)cc1"
-1

Next up: COc1ccc(CC2CCc3nc(N)nc(N)c3C2)cc1OC (configuration not stated)
-1

Next up: "COc1ccc(-c2nc3ncccn3c2-c2ccc(S(C)(=O)=O)cc2)cc1"
-1

Next up: CCOP(=O)(OCC)C1CC(n2cc(C)c(=O)[nH]c2=O)OC1CO (configuration not stated)
-1

Next up: "O=C1NC(=S)N(c2cccc3ccccc23)C(=O)/C1=C/c1c[nH]c2ccccc12"
-1

Next up: "c1nc2cscc2c2cscc12"
-1

Next up: "COc1cc(OC)c2nc(C)c3c(c2c1)NCC3"
-1

Next up: "Cc1ccc(/C=N/NS(=O)(=O)c2ccc(/C=C3\NC(=O)NC3=O)cc2)cc1"
-1

---

Tested on: DU-145
experiment_summary: NCI tumour cell line growth inhibition, 48 h
Activity calls are given as the source filed them. Cut-off read from the data, not from the text of the source: active = GI50 up to about 1.1 µM and inactive = higher.
Outcome (select one): active, inactive

// outcome(item) with item = "CCN(CCCl)CCCCNc1c2ccccc2nc2ccc(OC)cc12"
active

Next up: OCC(O)COCn1cc(Cn2ncc3c(SCc4ccccc4)ncnc32)nn1 (stereo unspecified)
inactive

Next up: "COC(=O)NC1(NC(=O)OC)NC(=O)c2ccccc2N1"
inactive

Next up: "C/C(=N/NC(=S)Nc1ccc(Cl)cc1)c1cccc(/C(C)=N\NC(=S)Nc2ccc(Cl)cc2)n1"
inactive

Next up: "CC(=O)/N=C1/N(/C=C2\C(=O)Oc3ccccc3C2=O)C(=O)/C(=C/c2ccc(NC(C)=O)cc2)N1C"
inactive

Next up: "O=c1[nH]c(=O)n(C/C=C/CBr)nc1Br"
inactive

Next up: "O=C(O)c1cc2ccccc2c(/N=N\c2cc(C(F)(F)F)ccc2Cl)c1O"
inactive

Next up: O=C1NC(c2ccc3ccccc3c2)Nc2ccccc21 (stereo unspecified)
inactive

Next up: "COc1ccc(OC/C(N)=N/NC(=O)c2ccncc2)cc1"
inactive

Next up: "Cc1ccc(S(=O)(=O)N2CCCSCC2)cc1"
inactive

Next up: "Cc1cc(C)nc(NS(=O)(=O)c2ccc(Nc3nnc(/C=C/c4c(O)ccc5ccccc45)c(=O)n3N)cc2)n1"
inactive
